system: Avi-KRAS G12V (1-169) GppNHp/RAF1 RBD-3xFLAG (52-151) (Homo sapiens, UniProt P01116, G12V)
Construct: Avi-KRAS G12V (1-169)
Sequence (P01116 1-169 isoform P01116-2 G12V): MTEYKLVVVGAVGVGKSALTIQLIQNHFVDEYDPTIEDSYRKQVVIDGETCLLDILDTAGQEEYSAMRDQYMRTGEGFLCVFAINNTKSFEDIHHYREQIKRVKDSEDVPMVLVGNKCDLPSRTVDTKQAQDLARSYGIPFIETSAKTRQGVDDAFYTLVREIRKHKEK
assayDetails: Raf1-KRAS G12V-GppNHP disruption HTRF assay (Biological Example 1)
Format: binding
setupConditions: KRAS G12V, GppNHp-loaded; Table 11
pIC50: −log10 of the molar value.
readoutKind: pIC50

Let me check: CN(c1nc(OC[C@@]23CCCN2C[C@H](F)C3)nc2c(F)c(-c3ccc(F)c4sc(N)c(C#N)c34)c(C(F)(F)F)cc12)[C@@H]1CCN(C(=O)CC#N)C1 (atropisomer, axis not shown) , system Avi-KRAS G12V (1-169) GppNHp/RAF1 RBD-3xFLAG (52-151) (Homo sapiens, UniProt P01116, G12V), measured pIC50 is 6.00 to 7.00

Let me check: CCN(C)c1nc(OC[C@@]23CCCN2C[C@H](F)C3)nc2c(F)c(-c3ccc(F)c4sc(N)c(C#N)c34)c(C(F)(F)F)cc12 (single isomer, unassigned) [Compound 196] , system Avi-KRAS G12V (1-169) GppNHp/RAF1 RBD-3xFLAG (52-151) (Homo sapiens, UniProt P01116, G12V), measured pIC50 is 6.00 to 7.00

Let me check: CN(c1nc(OC[C@@]23CCCN2C[C@H](F)C3)nc2c(F)c(-c3ccc(F)c4sc(N)c(C#N)c34)c(C(F)(F)F)cc12)C(CO)CO , system Avi-KRAS G12V (1-169) GppNHp/RAF1 RBD-3xFLAG (52-151) (Homo sapiens, UniProt P01116, G12V), measured pIC50 is 6.00 to 7.00

Let me check: CS(=O)(=O)N1CCN(c2nc(OC[C@@]34CCCN3C[C@H](F)C4)nc3c(F)c(-c4ccc(F)c5sc(N)c(C#N)c45)c(C(F)(F)F)cc23)CC1 , system Avi-KRAS G12V (1-169) GppNHp/RAF1 RBD-3xFLAG (52-151) (Homo sapiens, UniProt P01116, G12V), measured pIC50 is 5.00 to 6.00

Let me check: CN(c1nc(OC[C@@]23CCCN2C[C@H](F)C3)nc2c(F)c(-c3ccc(F)c4sc(N)c(C#N)c34)c(C(F)(F)F)cc12)[C@H]1C[C@H](O)C1 , system Avi-KRAS G12V (1-169) GppNHp/RAF1 RBD-3xFLAG (52-151) (Homo sapiens, UniProt P01116, G12V), measured pIC50 is 6.00 to 7.00

Let me check: CC(=O)N1CCN(c2nc(OC[C@@]34CCCN3C[C@H](F)C4)nc3c(F)c(-c4ccc(F)c5sc(N)c(C#N)c45)c(C(F)(F)F)cc23)[C@@H](C)C1 , system Avi-KRAS G12V (1-169) GppNHp/RAF1 RBD-3xFLAG (52-151) (Homo sapiens, UniProt P01116, G12V), measured pIC50 is 5.00 to 6.00

Let me check: CN(C[C@@H](O)CO)c1nc(OC[C@@]23CCCN2C[C@H](F)C3)nc2c(F)c(-c3ccc(F)c4sc(N)c(C#N)c34)c(C(F)(F)F)cc12 , system Avi-KRAS G12V (1-169) GppNHp/RAF1 RBD-3xFLAG (52-151) (Homo sapiens, UniProt P01116, G12V), measured pIC50 is 6.00 to 7.00

Let me check: CCN(CCC#N)c1nc(OC[C@@]23CCCN2C[C@H](F)C3)nc2c(F)c(-c3ccc(F)c4sc(N)c(C#N)c34)c(C(F)(F)F)cc12 , system Avi-KRAS G12V (1-169) GppNHp/RAF1 RBD-3xFLAG (52-151) (Homo sapiens, UniProt P01116, G12V), measured pIC50 is 6.00 to 7.00

Let me check: CCN(c1nc(OC[C@@]23CCCN2C[C@H](F)C3)nc2c(F)c(-c3ccc(F)c4sc(N)c(C#N)c34)c(C(F)(F)F)cc12)C1CC1 , system Avi-KRAS G12V (1-169) GppNHp/RAF1 RBD-3xFLAG (52-151) (Homo sapiens, UniProt P01116, G12V), measured pIC50 is 5.00 to 6.00

Let me check: CC(=O)N1C[C@@H](F)[C@@H](N(C)c2nc(OC[C@@]34CCCN3C[C@H](F)C4)nc3c(F)c(-c4ccc(F)c5sc(N)c(C#N)c45)c(C(F)(F)F)cc23)C1 , system Avi-KRAS G12V (1-169) GppNHp/RAF1 RBD-3xFLAG (52-151) (Homo sapiens, UniProt P01116, G12V), measured pIC50 is 6.00 to 7.00

Let me check: C[C@H]1C[C@H](O)CCN1c1nc(OC[C@@]23CCCN2C[C@H](F)C3)nc2c(F)c(-c3ccc(F)c4sc(N)c(C#N)c34)c(C(F)(F)F)cc12 , system Avi-KRAS G12V (1-169) GppNHp/RAF1 RBD-3xFLAG (52-151) (Homo sapiens, UniProt P01116, G12V), measured pIC50 is 6.00 to 7.00

Let me check: CCC(=O)N1C[C@H](C)N(c2nc(OC[C@@]34CCCN3C[C@H](F)C4)nc3c(F)c(-c4ccc(F)c5sc(N)c(C#N)c45)c(C(F)(F)F)cc23)C[C@H]1C (atropisomer, axis not shown) , system Avi-KRAS G12V (1-169) GppNHp/RAF1 RBD-3xFLAG (52-151) (Homo sapiens, UniProt P01116, G12V), measured pIC50 is < 5.00

Let me check: C[C@H](O)CN(C)c1nc(OC[C@@]23CCCN2C[C@H](F)C3)nc2c(F)c(-c3ccc(F)c4sc(N)c(C#N)c34)c(C(F)(F)F)cc12 , system Avi-KRAS G12V (1-169) GppNHp/RAF1 RBD-3xFLAG (52-151) (Homo sapiens, UniProt P01116, G12V), measured pIC50 is 6.00 to 7.00

Let me check: CN(c1nc(OC[C@@]23CCCN2C[C@H](F)C3)nc2cc(-c3ccc(F)c4sc(N)c(C#N)c34)c(C(F)(F)F)cc12)[C@H]1C[C@@H](O)C1 , system Avi-KRAS G12V (1-169) GppNHp/RAF1 RBD-3xFLAG (52-151) (Homo sapiens, UniProt P01116, G12V), measured pIC50 is 6.00 to 7.00

Let me check: CCN(CC)c1nc(OC[C@@]23CCCN2C[C@H](F)C3)nc2c(F)c(-c3ccc(F)c4sc(N)c(C#N)c34)c(C(F)(F)F)cc12 , system Avi-KRAS G12V (1-169) GppNHp/RAF1 RBD-3xFLAG (52-151) (Homo sapiens, UniProt P01116, G12V), measured pIC50 is 6.00 to 7.00

Let me check: N#Cc1c(N)sc2c(F)ccc(-c3c(C(F)(F)F)cc4c(N5CCC(F)(F)C5)nc(OC[C@@]56CCCN5C[C@H](F)C6)nc4c3F)c12 , system Avi-KRAS G12V (1-169) GppNHp/RAF1 RBD-3xFLAG (52-151) (Homo sapiens, UniProt P01116, G12V), measured pIC50 is 5.00 to 6.00

Let me check: CCC(=O)N1CC[C@@H](N(C)c2nc(OC[C@@]34CCCN3C[C@H](F)C4)nc3c(F)c(-c4ccc(F)c5sc(N)c(C#N)c45)c(C(F)(F)F)cc23)[C@H]1C [Compound 260] , system Avi-KRAS G12V (1-169) GppNHp/RAF1 RBD-3xFLAG (52-151) (Homo sapiens, UniProt P01116, G12V), measured pIC50 is 6.00 to 7.00

Let me check: N#Cc1c(N)sc2c(F)ccc(-c3c(C(F)(F)F)cc4c(N5CC6CCC(C5)C6CO)nc(OC[C@@]56CCCN5C[C@H](F)C6)nc4c3F)c12 (stereo partly drawn) , system Avi-KRAS G12V (1-169) GppNHp/RAF1 RBD-3xFLAG (52-151) (Homo sapiens, UniProt P01116, G12V), measured pIC50 is 6.00 to 7.00

Let me check: CN(c1nc(OC[C@@]23CCCN2C[C@H](F)C3)nc2c(F)c(-c3ccc(F)c4sc(N)c(C#N)c34)c(C#N)cc12)[C@H]1C[C@@H](O)C1 , system Avi-KRAS G12V (1-169) GppNHp/RAF1 RBD-3xFLAG (52-151) (Homo sapiens, UniProt P01116, G12V), measured pIC50 is 5.00 to 6.00

Let me check: CC(=O)N1C[C@@H](F)[C@H](N(C)c2nc(OC[C@@]34CCCN3C[C@H](F)C4)nc3c(F)c(-c4ccc(F)c5sc(N)c(C#N)c45)c(C(F)(F)F)cc23)C1 , system Avi-KRAS G12V (1-169) GppNHp/RAF1 RBD-3xFLAG (52-151) (Homo sapiens, UniProt P01116, G12V), measured pIC50 is 6.00 to 7.00

Let me check: CN(c1nc(OC[C@@]23CCCN2C[C@H](F)C3)nc2c(C#N)c(-c3ccc(F)c4sc(N)c(C#N)c34)c(Cl)cc12)[C@H]1C[C@@H](O)C1 , system Avi-KRAS G12V (1-169) GppNHp/RAF1 RBD-3xFLAG (52-151) (Homo sapiens, UniProt P01116, G12V), measured pIC50 is 6.00 to 7.00
